Test: Competitive inhibition of Stenotrophomonas maltophilia SmltD assessed as inhibition constant using ATP as substrate by Dixon plot analysis
value_type: Ki (µM)
Unit µM implied. Number only.

Incoming: Fill in reported Ki for this entry: `O=C(OC[C@H]1O[C@@H](Oc2c(-c3ccc(O)cc3)oc3cc(O)cc(O)c3c2=O)[C@H](O)[C@@H](O)[C@@H]1O)c1cc(O)c(O)c(O)c1`
Outgoing: 110
